# target.desc: Ataxin-2 (Homo sapiens) (UniProt Q99700)
# Sequence (Q99700 whole entry): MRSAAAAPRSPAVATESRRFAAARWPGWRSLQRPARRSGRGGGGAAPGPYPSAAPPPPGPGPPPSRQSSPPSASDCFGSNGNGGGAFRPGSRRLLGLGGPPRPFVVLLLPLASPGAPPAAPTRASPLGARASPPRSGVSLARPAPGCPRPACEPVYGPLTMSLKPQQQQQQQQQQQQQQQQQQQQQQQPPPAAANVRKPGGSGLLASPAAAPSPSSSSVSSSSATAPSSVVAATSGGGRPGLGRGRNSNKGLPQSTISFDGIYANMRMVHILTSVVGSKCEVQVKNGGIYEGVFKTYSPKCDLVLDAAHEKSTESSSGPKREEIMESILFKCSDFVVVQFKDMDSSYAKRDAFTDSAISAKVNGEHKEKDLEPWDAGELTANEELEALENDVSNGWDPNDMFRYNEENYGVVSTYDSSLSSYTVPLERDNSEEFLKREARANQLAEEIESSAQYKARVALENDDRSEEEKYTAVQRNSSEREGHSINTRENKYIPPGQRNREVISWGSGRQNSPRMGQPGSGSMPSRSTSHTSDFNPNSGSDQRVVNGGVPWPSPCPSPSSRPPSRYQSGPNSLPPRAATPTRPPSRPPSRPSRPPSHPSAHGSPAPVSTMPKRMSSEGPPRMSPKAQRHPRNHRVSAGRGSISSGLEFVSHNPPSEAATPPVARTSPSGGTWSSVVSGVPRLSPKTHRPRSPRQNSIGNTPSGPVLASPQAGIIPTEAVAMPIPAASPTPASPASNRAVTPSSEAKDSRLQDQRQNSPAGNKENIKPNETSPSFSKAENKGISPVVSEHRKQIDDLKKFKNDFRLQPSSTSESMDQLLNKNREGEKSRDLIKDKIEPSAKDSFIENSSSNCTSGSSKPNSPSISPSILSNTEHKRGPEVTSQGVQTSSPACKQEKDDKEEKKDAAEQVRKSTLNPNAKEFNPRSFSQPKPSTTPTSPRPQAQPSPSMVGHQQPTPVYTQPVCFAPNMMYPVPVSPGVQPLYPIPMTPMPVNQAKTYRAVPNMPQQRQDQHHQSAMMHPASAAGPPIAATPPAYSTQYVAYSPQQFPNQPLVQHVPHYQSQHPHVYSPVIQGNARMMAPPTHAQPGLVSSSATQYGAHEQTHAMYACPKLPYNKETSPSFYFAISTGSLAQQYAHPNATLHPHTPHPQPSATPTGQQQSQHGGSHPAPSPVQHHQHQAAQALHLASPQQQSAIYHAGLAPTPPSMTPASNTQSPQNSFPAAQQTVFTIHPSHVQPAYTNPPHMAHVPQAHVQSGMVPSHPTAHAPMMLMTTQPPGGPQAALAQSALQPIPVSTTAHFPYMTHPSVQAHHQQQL
# protocol.details: qHTS for Inhibitors of ATXN expression.
# Format: functional
Out of some 400,000 compounds screened, about 2,100 (0.53%) were called active. Inconclusive results (about 14%) are left out. How the calls were made is not given here. Shown is part of a subset that was picked to be rich in actives.
Outcomes: 1 (active), -1 (inactive)

[
  {
    "compound": "COc1ccc(C2C(C(=O)c3ccco3)=C(O)C(=O)N2c2nnc(C)s2)cc1 (stereo not given)",
    "group.label": -1
  },
  {
    "compound": "COn1c(=O)c(-c2ccc(F)cc2)[n+]([O-])c2ccccc21",
    "group.label": -1
  },
  {
    "compound": "Cc1cc(N2CCN(C)CC2)nc2ccc(NC(=O)Nc3ccccc3Br)cc12",
    "group.label": 1
  },
  {
    "compound": "CCc1cc2c(COC(=O)c3cc(S(=O)(=O)N4CCOCC4)ccc3F)cc(=O)oc2cc1O",
    "group.label": -1
  },
  {
    "compound": "C=CCn1c(=N)c(C(=O)NCCCOC)cc2c(=O)n3cccc(C)c3nc21",
    "group.label": -1
  },
  {
    "compound": "CCOc1ccc(S(=O)(=O)N2CCN(C)CC2)cc1NC(=O)c1ccccc1F",
    "group.label": -1
  },
  {
    "compound": "CCN1CCN(c2cc(C)c3cc(NC(=O)CCC(=O)Nc4ccc(OC)cc4OC)ccc3n2)CC1",
    "group.label": -1
  },
  {
    "compound": "Cc1sc(NC(=O)/C=C/c2ccco2)c(C(=O)OC(C)C)c1C",
    "group.label": -1
  },
  {
    "compound": "C=CCOc1ccccc1CN(C(=O)CCl)c1ccc2c(c1)OCO2",
    "group.label": 1
  },
  {
    "compound": "CCCN(CCC)CCNC(=O)CCC(=O)Nc1ccc2nc(N3CCOCC3)cc(C)c2c1",
    "group.label": -1
  }
]

Source: ChEMBL document CHEMBL1201862
